Tested on: K4 kissing-loop RNA reporter;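 note: bound reporter read as fluorescence of individual clusters on recovered sequencing chips by microscopy, with normalized cluster intensities fitted with a binding model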
Assay: apparent KD of K4 kissing-loop reporter; higher = weaker reporter binding
Conditions: Eterna round: R107; input ligand: none
apparent KD of K4 kissing-loop reporter listing for selected sequences.
Entry rule: numbers only, all in µM.

Use the examples below as a reference point.
sequence_string | value_unit | apparent KD of K4 kissing-loop reporter
GGUCCGGGCUCGGCCGCCACUCCCUCCUGCCGGAAGGUGGGAUACCGAGUGAUGUUCGGUUGGAGGAGGACCGGGAGCCCGGACC [#2 Exclusion - Tryptophan B Attempt #13 (HarryS)] | µM | 0.123
UGUCAUUGGUCGGCCGCCACUUCAUAGAGAGUGAUGUUCUUAAAGACGGAUCGAAAGAUCUGUCGAAGGACCGGGACCGAUGACU [FiskerMod 9 - Jieux - Same State - Tryptophan B] | µM | 1.4

query: Name the reported apparent KD of K4 kissing-loop reporter value associated with the sequence GGUGCUGUCUGUGCCGCCCUCCUCGUUCCUCGAGGACCGGUACGGCCGCCACUCGAGUGAUGUUUGGGUAGCGAUCCCUGCUAGC [Bdazzled - #16 Exc. Tryptophan A]
result: 1.06

query: Name the reported apparent KD of K4 kissing-loop reporter value associated with the sequence CAUACGCAUGGAGGAUAUGAGAUUACUCAUAUCAUUUAAUAUUCUCAGUGAUGUUGAGAUUUAAACUCAGAAGGCCAUGUGUAUG [Ex FMN B 12]
result: 0.358

query: Name the reported apparent KD of K4 kissing-loop reporter value associated with the sequence `GCCGUACGCAUGGAUACCAGUCUUAGAGUGAUGUUCUAUACGAUUGCGCCUGGAUCAAUGGACCCUUGGCAGCCAUGCGUACGGC`
result: 0.123

query: Name the reported apparent KD of K4 kissing-loop reporter value associated with the sequence GUUACGCAUGGAAGGAGCGCUCUCAUGCUUAAUAACACAGUGAUGUUGUGAAUUUGCAUAAAGCAGGUAGGUCGCCAUGUGUAAC [Ex Arginine B K4 8]
result: 0.359

###

apparent KD of MS2 coat protein listing for selected sequences.
Tested on: MS2 coat protein
Test: apparent KD of MS2 coat protein, switch ON state; designed switch direction (-1 OFF switch, 1 ON switch): 1; higher = weaker reporter binding
Conditions: FMN input: 0 or 200 uM; Eterna round: R93 (includes R88 designs)
Entry rule: numbers only, all in nM.

sequence_string | tgt | apparent KD of MS2 coat protein, nM
CGGAAGGAGAGAGAGGAUAUCCAAAGGAAAACAUGAGGAUCACCCAUGUAGAAGGUAGGAAAUUGGGAGAAGGCUCAAGAGAUAG [salish99-ss2-124] | MS2 coat protein | 20.6
AAACUGGAGGACAAGGAUAUGUGCUCUACGACAUGAGGAUCACCCAUGUGAGACGUAGUAGUGAAACAGAAGGUGUCCUAUUGUA [Tiarri] | MS2 coat protein | 11
AAUACACAUGAGGAUCACCCAUGUAGAAAGAAGUCAGGAUAUCCGAUCCACAUGUGAUAAGGAGAAGGGACAAUAA [SS 1 Tesla 8] | MS2 coat protein | 19.6
AAAGAAAAACUAGAGGAUAUCCGAAUGGUAACAUGAGGAUCACCCAUGUGAAGAAAGGAACAUGAGGAGAAGGCUAGAAGAAAAA [JL Nando mod 10] | MS2 coat protein | 18.8
UGGAAACAUGAGGAUCACCCAUGUAAAAGGUGGUUAGGAUAUGCAAAACGGAAAACGAAAGCAGAAGGGACAAAAA [Inspired by JR and Meechl] | MS2 coat protein | 130

query: What is its apparent KD of MS2 coat protein for MS2 coat protein? Entry: AAAGAAAAACUAGAGGAUAUCCGAGUGGUAACAUGAGGAUCACCCAUGUGACGAAAGGAACAUGAGGAGAAGGCUAGAAGAAAAA [JL Nando mod 9]
result: 46.3

query: What is its apparent KD of MS2 coat protein for MS2 coat protein? Entry: AAAAGACAUGAGGAUCACCCAUGUCCUCGGACAUGAGGAUAUGUACAGACUUCGGUCUGUACAGAAGGCAUAAAAA [SS1 - 1063]
result: 71.2

query: What is its apparent KD of MS2 coat protein for MS2 coat protein? Entry: AAAAAACAUGAGGAUCACCCAUGUAAAAAAAUCGCAGGAUAUACGGUCGCGAAAGCGACCGUAGAAGGGCGAUCCU [Louisiana 3 - Jieux - Same State 1]
result: 59.1

query: What is its apparent KD of MS2 coat protein for MS2 coat protein? Entry: AGAAAUAAAGCGAAGGAUAUCCAAACCUAAACAUGAGGAUCACCCAUGUAAAAGAAAAUAAAAUGGGAGAAGGUCGCAAAUAAGA [Designing denovo 14]
result: 13.5

query: What is its apparent KD of MS2 coat protein for MS2 coat protein? Entry: AGACAUAAAAGAGAGGAUAUCCAAAAGAAAACAUGAGGAUCACCCAUGUGAAAGAAAAUAAAAUGGGAGAAGGCUCACAUACAGA [Topaz 36]
result: 14.1

query: What is its apparent KD of MS2 coat protein for MS2 coat protein? Entry: AAAUAAAUGACUAAGGAUAUCUCAGAGAAAACAUGAGGAUCACCCAUGUAAUAAUAACAUGUGUGAGAGAAGGUAGUCAACAAAC [Same State 2.4 (Pariah 4 -changed stack on 9nt hairpin)]
result: 16.1

query: What is its apparent KD of MS2 coat protein for MS2 coat protein? Entry: AAAGACGUGCAUCAGGAUAUGUUCCGAGACACAUGAGGAUCACCCAUGUGGACGAAGUCUCGGGCACAGAAGGGAUCACUCAUAA [Latibe]
result: 15.4

The measurements presented in this section are drawn from the supplement of paper PMC9170038.
